Test name: Metabolic stability in human plasma assessed as compound remaining after 2 hrs by radio-HPLC and radio-TLC analysis
Type: ADME, cell-free
Applied conditions: read-out: Stability
Metric name: remaining at 2 h (%)
Your answer should be a plain number; it is taken to be in %.

remaining at 2 h reading for `CC(C)(C)[Si]([18F])(c1cccc(C(=O)NCCn2ccnc2[N+](=O)[O-])c1)C(C)(C)C` : 85

---

Test name: Chemical stability of the compound in saline after 2 hrs at pH 5.5 by radio-HPLC and radio-TLC analysis
Assay type: physicochemical
Applied conditions: read-out: Stability
Metric name: remaining at 2 h (%)
Your answer should be a plain number; it is taken to be in %.

remaining at 2 h reading for `CC(C)(C)[Si]([18F])(c1cccc(C(=O)NCCn2ccnc2[N+](=O)[O-])c1)C(C)(C)C` : 100

---

Test name: Half life of the compound
Type: physicochemical
Metric name: half-life
Write the figure, then the unit, nothing else.

half-life reading for `O=[N+]([O-])c1nccn1CCC[Si]([18F])(c1cccc2ccccc12)c1cccc2ccccc12` : 130 min

---

Test name: Octanol-water partition coefficient, log P of the compound
Format: physicochemical
Metric name: P
In your answer, state the number alone without any accompanying words.

P reading for `O=C(Cn1ccnc1[N+](=O)[O-])NCC(F)(F)C(F)(F)F` : 5.7

---

Test name: Lipophilicity, log D of the compound at pH 7.4
Format: physicochemical
Applied conditions: buffer
Metric name: logD
In your answer, state the number alone without any accompanying words.

logD reading for `CC(C)(C)[Si]([18F])(c1cccc(C(=O)NCCn2ccnc2[N+](=O)[O-])c1)C(C)(C)C` : 2.12

---

Test name: Half life of the compound in saline at pH 5.5 by radio-HPLC and radio-TLC analysis
Assay type: physicochemical
Metric name: half-life (h)
Your answer should be a plain number; it is taken to be in h.

Smiles repr	Measured value
O=[N+]([O-])c1nccn1CCOCCOCc1cn(CCC[Si]([18F])(c2cccc3ccccc23)c2cccc3ccccc23)nn1	1

half-life reading for `O=C(Cn1ccnc1[N+](=O)[O-])NCCC[Si]([18F])(c1cccc2ccccc12)c1cccc2ccccc12` : 1

---

Test name: Drug degradation in water at pH 7.4 by radio-HPLC and radio-TLC analysis
Type: physicochemical
Applied conditions: read-out: Drug degradation
Metric name: degraded

degraded reading for `CC(C)(C)[Si]([18F])(c1cccc(C(=O)NCCn2ccnc2[N+](=O)[O-])c1)C(C)(C)C` : < 10%
